Measurement Target: D2 receptor (Homo sapiens, UniProt P14416)
Sequence (P14416 whole entry): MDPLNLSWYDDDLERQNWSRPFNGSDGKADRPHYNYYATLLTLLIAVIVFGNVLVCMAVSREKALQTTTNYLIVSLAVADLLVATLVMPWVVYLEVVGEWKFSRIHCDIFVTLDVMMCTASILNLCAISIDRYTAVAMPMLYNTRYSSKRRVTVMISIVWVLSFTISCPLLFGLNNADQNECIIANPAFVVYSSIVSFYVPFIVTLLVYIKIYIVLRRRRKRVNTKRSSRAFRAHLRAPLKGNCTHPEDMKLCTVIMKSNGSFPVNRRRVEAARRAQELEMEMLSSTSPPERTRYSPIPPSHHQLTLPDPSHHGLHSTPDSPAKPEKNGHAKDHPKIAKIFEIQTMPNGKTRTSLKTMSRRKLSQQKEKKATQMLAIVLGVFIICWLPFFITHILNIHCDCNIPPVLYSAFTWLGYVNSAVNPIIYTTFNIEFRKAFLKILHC
Assay Text: Serotonin and dopamine receptor binding: D2
The entries below are paired with their reported IC50.

# Molecule, IC50, nM
rows = [
    ("CN1CC[C@@H]2[C@@H](C1)c1cccc3c1N2c1ccccc1CS3 [Compound 4]", 20),
    ("CN1CCc2c(c3cccc4c3n2-c2ccccc2CS4)C1 [Compound 2]", 80),
    ("CN1CC[C@H]2[C@@H](C1)c1cccc3c1N2c1ccccc1CS3 [Compound 3]", 500),
    ("CN1CCc2c(c3cccc4c3n2-c2ccccc2CO4)C1 [Compound 9]", 500),
    ("O=C(CCCN1CCc2c(c3cccc4c3n2-c2ccccc2CS4)C1)c1ccc(F)cc1 [Compound 6]", 8),
]

----------
The entries below are paired with their reported log10(IC50).
Measurement Target: 5-HT2C receptor (Homo sapiens, UniProt P28335)
Sequence (P28335 33-458): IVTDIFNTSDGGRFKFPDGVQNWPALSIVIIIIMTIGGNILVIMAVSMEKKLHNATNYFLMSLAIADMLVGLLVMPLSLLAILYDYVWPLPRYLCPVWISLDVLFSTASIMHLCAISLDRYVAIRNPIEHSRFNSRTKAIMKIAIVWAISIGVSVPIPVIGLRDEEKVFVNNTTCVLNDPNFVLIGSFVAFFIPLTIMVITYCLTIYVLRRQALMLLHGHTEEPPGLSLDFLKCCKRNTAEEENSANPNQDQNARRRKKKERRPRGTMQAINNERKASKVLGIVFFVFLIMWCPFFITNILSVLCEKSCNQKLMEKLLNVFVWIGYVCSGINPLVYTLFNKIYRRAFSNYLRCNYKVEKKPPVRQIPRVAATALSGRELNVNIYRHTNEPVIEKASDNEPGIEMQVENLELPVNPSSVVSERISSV
Assay Text: Serotonin and dopamine receptor binding: 5-HT2C
Metric Name: log10(IC50) (log10 of the value in nM)

# Compound, log10(IC50)
measured = [
    ("CN1CCc2c(c3cccc4c3n2-c2ccccc2CO4)C1", 1.70),
    ("CN1CCc2c(c3cccc4c3n2-c2ccccc2CS4)C1", 1.00),
    ("CN1CC[C@@H]2[C@@H](C1)c1cccc3c1N2c1ccccc1CS3", 0.70),
    ("O=C(CCCN1CCc2c(c3cccc4c3n2-c2ccccc2CS4)C1)c1ccc(F)cc1", 1.90),
    ("CN1CC[C@H]2[C@@H](C1)c1cccc3c1N2c1ccccc1CS3", 1.18),
]
